# credit: ChEMBL document CHEMBL1287728

# assay_system: Prostaglandin E2 receptor EP1 subtype (Homo sapiens)
# Sequence (P34995 whole entry): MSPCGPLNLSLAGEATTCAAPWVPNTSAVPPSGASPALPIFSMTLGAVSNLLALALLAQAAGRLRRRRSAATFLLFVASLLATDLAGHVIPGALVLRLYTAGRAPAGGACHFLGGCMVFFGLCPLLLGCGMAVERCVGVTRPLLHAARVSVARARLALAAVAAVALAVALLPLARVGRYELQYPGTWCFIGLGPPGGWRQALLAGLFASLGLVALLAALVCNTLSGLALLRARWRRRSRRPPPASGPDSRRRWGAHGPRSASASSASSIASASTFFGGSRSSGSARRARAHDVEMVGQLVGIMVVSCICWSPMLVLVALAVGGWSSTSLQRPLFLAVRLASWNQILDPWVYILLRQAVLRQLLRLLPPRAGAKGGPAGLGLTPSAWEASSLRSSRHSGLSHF
reported_endpoint: pKi
In textbook form, pKi equals minus log to base ten of the concentration in mol/L.

Q: Returns the measured pKi for the input molecule. Input: C[C@@H](c1ccc(C(F)(F)F)cc1)n1c2c(c3cc(F)cc(S(C)(=O)=O)c31)CCC[C@@H]2CC(=O)O
A: 5.34

----------
# assay_system: Thromboxane A2 receptor (Homo sapiens)
# Sequence (P21731 whole entry): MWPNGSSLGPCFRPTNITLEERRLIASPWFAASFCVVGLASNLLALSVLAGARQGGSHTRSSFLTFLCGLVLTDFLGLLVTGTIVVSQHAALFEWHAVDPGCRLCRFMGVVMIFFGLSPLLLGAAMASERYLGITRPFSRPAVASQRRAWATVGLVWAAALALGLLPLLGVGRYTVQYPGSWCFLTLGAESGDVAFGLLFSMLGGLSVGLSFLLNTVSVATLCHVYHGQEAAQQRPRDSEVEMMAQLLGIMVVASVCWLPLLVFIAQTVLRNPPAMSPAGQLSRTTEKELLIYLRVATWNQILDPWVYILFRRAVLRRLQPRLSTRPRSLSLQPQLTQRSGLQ
# method_summary: Antagonist activity at prostanoid TP receptor
Documented pKi across a set of molecules
In textbook form, pKi equals minus log to base ten of the concentration in mol/L.

// below: answered molecules
molecule | data_value
C[C@@H](c1cccc(Cl)c1)n1c2c(c3cc(F)cc(S(C)(=O)=O)c31)CCC[C@@H]2CC(=O)O | 6.53
CS(=O)(=O)c1cc(F)cc2c3c(n([C@@H](CF)c4ccc(Cl)cc4)c12)[C@@H](CC(=O)O)CCC3 | 6.86
CS(=O)(=O)c1cc(F)cc2c3c(n([C@H](c4ccc(Cl)cc4)C(F)F)c12)[C@@H](CC(=O)O)CCC3 | 6.89

Q: Returns the measured pKi for the input molecule. Input: CS(=O)(=O)c1cc(F)cc2c3c(n(Cc4ccc(Cl)cc4)c12)C(CC(=O)O)CCC3 (racemic)
A: 8.60

Q: Returns the measured pKi for the input molecule. Input: C[C@@H](c1ccc(Cl)cc1)n1c2c(c3cc(F)cc(S(C)(=O)=O)c31)CCC[C@@H]2CC(=O)O
A: 6.74

Q: Returns the measured pKi for the input molecule. Input: C[C@@H](c1ccc(C(F)(F)F)cc1)n1c2c(c3cc(F)cc(S(C)(=O)=O)c31)CCC[C@@H]2CC(=O)O
A: 6.47

Q: Returns the measured pKi for the input molecule. Input: C[C@@H](c1ccc(Cl)cc1F)n1c2c(c3cc(F)cc(S(C)(=O)=O)c31)CCC[C@@H]2CC(=O)O
A: 6.57

----------
# method_summary: Chemical stability of compound in 0.01N HCl after 2 hrs
# Format: physicochemical
# details: read-out: Stability
reported_endpoint: remaining at 2 h (%)
Numeric only. Scale: %

Q: Returns the measured remaining at 2 h for the input molecule. Input: C[C@@H](c1ccc(Cl)cc1)n1c2c(c3cc(F)cc(S(C)(=O)=O)c31)CCC[C@@H]2CC(=O)O
A: 79

----------
# assay_system: UniProt:P43088
# Sequence (P43088 whole entry): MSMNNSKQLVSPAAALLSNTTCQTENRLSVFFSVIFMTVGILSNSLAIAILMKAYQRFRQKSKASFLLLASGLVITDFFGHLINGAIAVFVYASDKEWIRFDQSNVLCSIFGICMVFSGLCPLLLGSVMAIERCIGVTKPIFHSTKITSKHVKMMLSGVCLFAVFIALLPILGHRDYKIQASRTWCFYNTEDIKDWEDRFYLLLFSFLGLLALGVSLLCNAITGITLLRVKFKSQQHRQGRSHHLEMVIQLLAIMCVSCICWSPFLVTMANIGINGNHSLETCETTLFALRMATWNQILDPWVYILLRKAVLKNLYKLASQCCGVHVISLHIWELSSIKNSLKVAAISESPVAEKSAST
reported_endpoint: Ki (µM)
Numeric only. Scale: µM

Q: Notebook entry, UniProt:P43088 assay: Ki of C[C@@H](c1ccc(C(F)(F)F)cc1)n1c2c(c3cc(F)cc(S(C)(=O)=O)c31)CCC[C@@H]2CC(=O)O = ?
A: 4.32

----------
# assay_system: Prostaglandin D2 receptor (Homo sapiens)
# Sequence (Q13258 whole entry): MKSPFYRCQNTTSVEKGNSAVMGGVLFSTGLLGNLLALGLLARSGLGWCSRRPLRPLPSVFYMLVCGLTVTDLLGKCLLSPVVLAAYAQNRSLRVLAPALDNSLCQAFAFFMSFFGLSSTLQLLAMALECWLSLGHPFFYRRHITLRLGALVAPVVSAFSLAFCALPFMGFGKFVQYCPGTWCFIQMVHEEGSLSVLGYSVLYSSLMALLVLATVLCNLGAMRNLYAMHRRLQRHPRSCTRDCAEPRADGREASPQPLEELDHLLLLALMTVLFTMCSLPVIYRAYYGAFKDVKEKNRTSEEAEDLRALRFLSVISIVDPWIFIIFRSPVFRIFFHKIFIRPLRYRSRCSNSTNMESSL
# method_summary: Antagonist activity at prostanoid DP1 receptor in human platelet assessed as inhibition of PGD2 induced accumulation of cAMP
reported_endpoint: pIC50
In textbook form, pIC50 equals minus log to base ten of the concentration in mol/L.

Q: Returns the measured pIC50 for the input compound. Input: C[C@@H](c1ccc(C(F)(F)F)cc1)n1c2c(c3cc(F)cc(S(C)(=O)=O)c31)CCC[C@@H]2CC(=O)O
A: 8.60

----------
# assay_system: Prostaglandin D2 receptor (Homo sapiens, UniProt Q13258)
# Sequence (Q13258 whole entry): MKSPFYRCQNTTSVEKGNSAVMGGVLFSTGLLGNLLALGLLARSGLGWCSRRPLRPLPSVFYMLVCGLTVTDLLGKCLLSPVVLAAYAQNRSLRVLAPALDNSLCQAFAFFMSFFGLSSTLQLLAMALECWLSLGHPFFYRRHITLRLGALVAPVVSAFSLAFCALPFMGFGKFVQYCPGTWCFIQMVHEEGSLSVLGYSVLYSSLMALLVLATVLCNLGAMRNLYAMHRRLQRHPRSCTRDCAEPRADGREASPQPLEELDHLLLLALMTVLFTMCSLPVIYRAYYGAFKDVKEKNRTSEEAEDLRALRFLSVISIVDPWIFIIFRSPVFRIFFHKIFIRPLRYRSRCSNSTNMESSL
# method_summary: Antagonist activity at prostanoid DP1 receptor
Documented pKi across a set of molecules
In textbook form, pKi equals minus log to base ten of the concentration in mol/L.

molecule | assay_system | pKi
C[C@@H](c1ccccc1)n1c2c(c3cc(F)cc(S(C)(=O)=O)c31)CCC[C@@H]2CC(=O)O | Prostaglandin D2 receptor (Homo sapiens, UniProt Q13258) | 9.44
C[C@@H](c1ccc(Cl)cc1)n1c2c(c3cc(F)cc(S(C)(=O)=O)c31)CCC[C@@H]2CC(=O)O | Prostaglandin D2 receptor (Homo sapiens, UniProt Q13258) | 9.12
C[C@@H](c1ccc(Cl)cc1F)n1c2c(c3cc(F)cc(S(C)(=O)=O)c31)CCC[C@@H]2CC(=O)O | Prostaglandin D2 receptor (Homo sapiens, UniProt Q13258) | 9.39

Continue with the molecule presented below.
Q: Returns the measured pKi for the input molecule. Input: C[C@@H](c1cccc(Cl)c1)n1c2c(c3cc(F)cc(S(C)(=O)=O)c31)CCC[C@@H]2CC(=O)O
A: 9.51

----------
Documented pKi across a set of molecules
# assay_system: Thromboxane A2 receptor (Homo sapiens, UniProt P21731)
# method_summary: Antagonist activity at prostanoid TP receptor
In textbook form, pKi equals minus log to base ten of the concentration in mol/L.

// below: answered molecules
compound_structure | assay_system | pKi
C[C@@H](c1ccc(C#N)cc1)n1c2c(c3cc(F)cc(S(C)(=O)=O)c31)CCC[C@@H]2CC(=O)O | Thromboxane A2 receptor (Homo sapiens, UniProt P21731) | 7.03
C[C@@H](c1ccc(F)cc1)n1c2c(c3cc(F)cc(S(C)(=O)=O)c31)CCC[C@@H]2CC(=O)O | Thromboxane A2 receptor (Homo sapiens, UniProt P21731) | 7.00
C[C@@H](c1ccc(Cl)c(Cl)c1)n1c2c(c3cc(F)cc(S(C)(=O)=O)c31)CCC[C@@H]2CC(=O)O | Thromboxane A2 receptor (Homo sapiens, UniProt P21731) | 6.95

Q: Notebook entry, Thromboxane A2 receptor (Homo sapiens, UniProt P21731) assay: pKi of C[C@@H](c1ccccc1)n1c2c(c3cc(F)cc(S(C)(=O)=O)c31)CCC[C@@H]2CC(=O)O = ?
A: 6.44

Q: Notebook entry, Thromboxane A2 receptor (Homo sapiens, UniProt P21731) assay: pKi of C[C@@H](c1ccc(Cl)c(F)c1)n1c2c(c3cc(F)cc(S(C)(=O)=O)c31)CCC[C@@H]2CC(=O)O = ?
A: 6.70

Q: Notebook entry, Thromboxane A2 receptor (Homo sapiens, UniProt P21731) assay: pKi of C[C@@H](c1ccc(S(C)(=O)=O)cc1)n1c2c(c3cc(F)cc(S(C)(=O)=O)c31)CCC[C@@H]2CC(=O)O = ?
A: 5.83

Q: Notebook entry, Thromboxane A2 receptor (Homo sapiens, UniProt P21731) assay: pKi of C[C@@H](c1ccc(Br)cc1)n1c2c(c3cc(F)cc(S(C)(=O)=O)c31)CCC[C@@H]2CC(=O)O = ?
A: 6.97

----------
# assay_system: Prostaglandin D2 receptor (Homo sapiens)
# method_summary: Antagonist activity at prostanoid DP1 receptor
Response field label: string, one of true (Ki strictly below 0.5 nM) or false.

Solved cases below.
compound | group
C[C@@H](c1ccc(Cl)c(Cl)c1)n1c2c(c3cc(F)cc(S(C)(=O)=O)c31)CCC[C@@H]2CC(=O)O | true
C[C@@H](c1ccc(Cl)c(F)c1)n1c2c(c3cc(F)cc(S(C)(=O)=O)c31)CCC[C@@H]2CC(=O)O | true
CS(=O)(=O)c1cc(F)cc2c3c(n(Cc4ccc(Cl)cc4)c12)C(CC(=O)O)CCC3 (racemic) | false
CC(c1ccc(Cl)cc1)n1c2c(c3cc(F)cc(S(C)(=O)=O)c31)CCCC2CC(=O)O (single isomer, unassigned; fast eluting) | false
CC(c1ccc(Cl)cc1)n1c2c(c3cc(F)cc(S(C)(=O)=O)c31)CCCC2CC(=O)O (single isomer, unassigned; slow-eluting) | false

Q: I wonder whether C[C@@H](c1ccc(C(F)(F)F)cc1)n1c2c(c3cc(F)cc(S(C)(=O)=O)c31)CCC[C@@H]2CC(=O)O has Ki below 0.5 nM. Can you tell?
A: true

Q: I wonder whether CS(=O)(=O)c1cc(F)cc2c3c(n([C@H](c4ccc(Cl)cc4)C(F)F)c12)[C@@H](CC(=O)O)CCC3 has Ki below 0.5 nM. Can you tell?
A: true

Q: I wonder whether C[C@@H](c1ccc(F)cc1)n1c2c(c3cc(F)cc(S(C)(=O)=O)c31)CCC[C@@H]2CC(=O)O has Ki below 0.5 nM. Can you tell?
A: true

Q: I wonder whether CS(=O)(=O)c1cc(F)cc2c3c(n([C@@H](CF)c4ccc(Cl)cc4)c12)[C@@H](CC(=O)O)CCC3 has Ki below 0.5 nM. Can you tell?
A: true

Q: I wonder whether C[C@@H](c1ccc(Br)cc1)n1c2c(c3cc(F)cc(S(C)(=O)=O)c31)CCC[C@@H]2CC(=O)O has Ki below 0.5 nM. Can you tell?
A: true

Q: I wonder whether C[C@@H](c1ccc(S(C)(=O)=O)cc1)n1c2c(c3cc(F)cc(S(C)(=O)=O)c31)CCC[C@@H]2CC(=O)O has Ki below 0.5 nM. Can you tell?
A: false
